- Measured Target: ABL1 (Homo sapiens, UniProt P00519)
- Construct: purchased Carna Biosciences
- Test: Luminescence-based ABL kinase assay (ADP-Glo, 300 μM ATP)
- Format: biochemical
Measured Quantity: IC50 (nM)

- [2H]C([2H])([2H])Oc1ccccc1-c1n[nH]c2nc(NC(=O)[C@@H]3C[C@@H]3F)ccc12 [Compound 101]: 16.4
- COc1cc2ncoc2cc1-c1c[nH]c2nc(NC(=O)[C@@H]3C[C@@H]3F)ccc12 [Compound 87]: 9.54
- O=C(Nc1ccc2c(-c3ccc4[nH]cnc4c3)c[nH]c2n1)[C@@H]1C[C@@H]1F [Compound 28]: 7.58
- CCOc1ncccc1-c1n[nH]c2nc(NC(=O)[C@@H]3C[C@@H]3F)ccc12 [Compound 64]: 56.9
- COc1cccc(OC)c1-c1n[nH]c2nc(NC(=O)[C@@H]3C[C@@H]3F)ccc12 [Compound 78]: 17.8
- O=C(Nc1ccc2c(-c3ccccc3Cl)c[nH]c2n1)C1CC1 [Compound 6]: 123
- COc1c(-c2c[nH]c3nc(NC(=O)[C@@H]4C[C@@H]4F)ccc23)cc2scnc2c1F [Compound 133]: 3.57
- COc1c(-c2n[nH]c3nc(NC(=O)[C@@H]4C[C@@H]4F)ccc23)ccc2[nH]cnc12 [Compound 90]: 21.7
- COc1ncnc(OC)c1-c1c[nH]c2nc(NC(=O)NCCN3CCNCC3)ccc12 [Compound 138]: 51.2
- COc1ccccc1-c1c[nH]c2nc(NC(=O)NC3CC3)ccc12 [Compound 123]: 56.5

I. Cc1cc(N)ncc1-c1c[nH]c2nc(NC(=O)C3CC3)ccc12 [Compound 34]
II. O=C(Nc1ccc2c(-c3ccc4[nH]ncc4c3)c[nH]c2n1)C1CC1 [Compound 21]
[ask] Would you kindly point out which of I and II has the smaller IC50 figure? Indicate which entry you chose by stating its label.
[reply] II
(II: 94.8 nM, I: 159 nM)

I. COc1nc2[nH]cnc2cc1-c1c[nH]c2nc(NC(=O)[C@@H]3C[C@@H]3F)ccc12 [Compound 83]
II. CNc1ncccc1-c1c[nH]c2nc(NC(=O)C3CC3)ccc12 [Compound 37]
III. COc1ccccc1-c1c[nH]c2nc(NC(=O)[C@@H]3C[C@@H]3CCO)ccc12 (relative stereo) [Compound 105]
IV. O=C(NCCN1CCNCC1)Nc1ccc2c(-c3ccccc3OC3CC3)n[nH]c2n1 [Compound 136]
[ask] Sort (4 compounds) by IC50: min first. Returns: the labels arranged in the requested order.
[reply] I, IV, II, III
(I: 1.52 nM, IV: 27.4 nM, II: 46.1 nM, III: 109 nM)

###

- Measured Target: ABL1 (Homo sapiens, UniProt P00519)
- Construct: purchased Carna Biosciences
- Test: Luminescence-based ABL kinase assay (ADP-Glo, 300 μM ATP)
- Assay type: biochemical
Measured Quantity: IC50 (nM)

* COc1c(-c2c[nH]c3nc(NC(=O)[C@@H]4C[C@@H]4F)ccc23)cc(F)c2[nH]cnc12 [Compound 95] | 6.32
* COc1ccccc1-c1c[nH]c2nc(NC(=O)[C@@H]3C[C@@H]3CN3CCN(C)CC3)ccc12 (racemic) [Compound 41] | 106
* COc1ccccc1-c1c[nH]c2nc(NC(=O)NCCC#N)ccc12 [Compound 104] | 102
* COc1ncccc1-c1c(F)[nH]c2nc(NC(=O)[C@@H]3C[C@@H]3F)ccc12 [Compound 68] | 78.2
* COc1cccc(OC)c1-c1c[nH]c2nc(NC(=O)NCCN(C)C)ccc12 [Compound 132] | 143
* COc1cc(F)ccc1-c1n[nH]c2nc(NC(=O)[C@@H]3C[C@@H]3F)ccc12 [Compound 99] | 14.9

a. COc1ccccc1-c1c[nH]c2nc(NC(=O)C3CC3)ccc12 [Compound 1]
b. O=C(Nc1ccc2c(-c3ccn4ccnc4c3)c[nH]c2n1)C1CC1 [Compound 55]
[ask] Of the two listed items, which has the higher IC50? First: a Second: b Select an item and report its label.
[reply] b

###

- Measured Target: ABL1 (T315I) (Homo sapiens, UniProt P00519, T315I)
- Test: Luminescence-based ABL kinase assay (ADP-Glo, 300 μM ATP), T315I mutant
- Format: biochemical
Measured Quantity: IC50 (nM)

- COc1cc2[nH]ncc2cc1-c1c[nH]c2nc(NC(=O)[C@@H]3C[C@@H]3F)ccc12: 2.51

I. COc1cc(F)ccc1-c1n[nH]c2nc(NC(=O)[C@@H]3C[C@@H]3F)ccc12
II. COc1c(-c2c[nH]c3nc(NC(=O)C4CC4)ccc23)ccc2[nH]cnc12
[ask] Among I and II , which shows a numerically higher IC50 result? Use the label to indicate which entry you chose.
[reply] I

P. O=C(Nc1ccc2c(-c3cccnc3OCC3CC3)c[nH]c2n1)C1CC1F (single isomer, unassigned) [Example S148, Enantiomer 1]
Q. COc1cccc(OC)c1-c1c[nH]c2nc(NC(=O)[C@@H]3C[C@@H]3F)ccc12
[ask] Kindly identify the item with the lower IC50 figure among these two: P and Q Bench note: the answer is the label of the chosen record.
[reply] Q
(Q: 1.48 nM, P: 1810 nM)

###

- Measured Target: ABL1 (T315I) (Homo sapiens, UniProt P00519, T315I)
- Test: Luminescence-based ABL kinase assay (ADP-Glo, 300 μM ATP), T315I mutant
- Format: biochemical
- Description: Kinase activity of ABL1 was measured using the ADP-Glo system (Promega), which measures formation of ADP using a luminescence-based method. Compounds were serially diluted in DMSO. […] During this step, ADP was converted to ATP, a substrate for luciferase, to produce luminescence signal. Luminescence was measured on an Envision plate reader (Perkin Elmer). Luminescence signal positively correlates with kinase activity. […] IC50 values were calculated using the XLFit software.
Measured Quantity: IC50 (nM)

a. O=C(NCCN1CCNCC1)Nc1ccc2c(-c3ccccc3OC3CC3)n[nH]c2n1
b. COc1c(-c2c[nH]c3nc(NC(=O)[C@@H]4C[C@@H]4F)ccc23)cc(F)c2[nH]cnc12
c. COc1ccnc(OC)c1-c1c[nH]c2nc(NC(=O)[C@@H]3C[C@@H]3F)ccc12
[ask] Sort these molecules on IC50 so the largest reading comes first. List each label, following the requested order.
[reply] a, c, b

a. COc1ccc(F)c(OC)c1-c1c[nH]c2nc(NC(=O)NCCN3CCN(C)CC3)ccc12
b. COc1cc2[nH]cnc2cc1-c1c[nH]c2nc(NC(=O)[C@@H]3C[C@@H]3F)ccc12
c. CNc1cccc(-c2c[nH]c3nc(NC(=O)C4CC4)ccc23)n1
d. Nc1ncccc1-c1c[nH]c2nc(NC(=O)C3CC3)ccc12
[ask] Order by IC50, ascending. Answer format: the labels, ordered as requested.
[reply] b, a, c, d
(b: 3.04 nM, a: 44.3 nM, c: 245 nM, d: 690 nM)

###

- Measured Target: ABL1 (T315I) (Homo sapiens, UniProt P00519, T315I)
- Test: Luminescence-based ABL kinase assay (ADP-Glo, 300 μM ATP), T315I mutant
- Assay type: biochemical
Measured Quantity: IC50 (nM)

Known results for compounds:
• CCOc1ncccc1-c1c[nH]c2nc(NC(=O)C3CC3)ccc12 [Compound 47] = 0.705
• COc1ncccc1-c1c(C)[nH]c2nc(NC(=O)[C@@H]3C[C@@H]3F)ccc12 [Compound 89] = 219
• O=C(Nc1ccc2c(-c3ccc4cc[nH]c4c3)c[nH]c2n1)C1CC1 [Compound 20] = 27.7
• COc1ccccc1-c1c[nH]c2nc(NC(=O)[C@@H]3C[C@@H]3CCO)ccc12 (relative stereo) [Compound 105] = 19.9
• COc1ccc(F)cc1-c1n[nH]c2nc(NC(=O)NCCN3CCN(C)CC3)ccc12 [Compound 79] = 108
• COc1cc2[nH]cnc2cc1-c1c[nH]c2nc(NC(=O)[C@H]3C[C@H]3F)ccc12 [Compound 52] = 13.7
• COc1c(-c2n[nH]c3nc(NC(=O)[C@@H]4C[C@@H]4F)ccc23)ccc2[nH]cnc12 [Compound 90] = 15
• COc1ccccc1-c1c[nH]c2nc(NC(=O)[C@H]3C[C@H]3C#N)ccc12 (relative stereo) [Compound 106] = 26.1

1. CCN1CCN(CCNC(=O)Nc2ccc3c(-c4ccccc4OC)c[nH]c3n2)CC1 [Compound 109]
2. CCNC(=O)Nc1ccc2c(-c3ccccc3OC)c[nH]c2n1 [Compound 103]
3. COc1nccc(C)c1-c1n[nH]c2nc(NC(=O)[C@@H]3C[C@@H]3F)ccc12 [Compound 112]
4. COc1ncc(F)cc1-c1n[nH]c2nc(NC(=O)[C@@H]3C[C@@H]3F)ccc12 [Compound 74]
[ask] Sort low-to-high on IC50, please. Return value: ordered labels per request.
[reply] 1, 2, 4, 3
(1: 7.08 nM, 2: 32.5 nM, 4: 63 nM, 3: 157 nM)

Entry source: patent US20240043420A1
